These data points were gathered from the supplement of paper PMC12667976.

I'd appreciate it if you could supply AIRE transcriptional activation functional score values for the items below.
B1: library; numbered along this chain (parent)
chain: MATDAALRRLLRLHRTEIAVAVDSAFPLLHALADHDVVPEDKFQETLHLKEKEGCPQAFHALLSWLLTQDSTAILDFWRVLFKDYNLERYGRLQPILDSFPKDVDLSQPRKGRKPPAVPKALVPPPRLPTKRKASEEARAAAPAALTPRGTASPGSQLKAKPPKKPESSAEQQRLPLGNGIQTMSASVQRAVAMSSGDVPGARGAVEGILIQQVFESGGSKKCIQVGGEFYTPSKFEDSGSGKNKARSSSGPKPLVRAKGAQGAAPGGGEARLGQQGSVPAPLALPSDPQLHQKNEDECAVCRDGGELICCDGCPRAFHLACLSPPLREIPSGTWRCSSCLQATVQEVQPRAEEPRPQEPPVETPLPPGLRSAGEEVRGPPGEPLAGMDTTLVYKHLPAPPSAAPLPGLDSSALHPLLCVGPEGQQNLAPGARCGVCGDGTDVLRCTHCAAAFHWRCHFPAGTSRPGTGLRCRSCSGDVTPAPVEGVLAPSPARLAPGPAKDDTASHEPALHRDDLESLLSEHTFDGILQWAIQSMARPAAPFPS

Variants of: B1
Assay: AIRE transcriptional activation functional score (insulin promoter-GFP; nonsense median 0, synonymous median 1) (normalised score); higher = higher AIRE activity (more reporter activation)
Details: with insulin promoter-GFP reporter in HEK293
Answers are plain numbers.

Some entries whose results are on file:
Mutation: P176A
Result Value: 1.33

Mutation: R257A
Result Value: 0.916

Mutation: D526G
Result Value: 0.346

Mutation: P148M
Result Value: 0.633

Here is the next item to consider.
Input line: Using the record for L122H , report its AIRE transcriptional activation functional score.
Output line: 0.431
